Test: Liver Microsome Stability Assay (mouse)
Conditions: mouse liver microsomes, with NADPH, 1.0 uM compound
property-label: Liver Microsome Stability (Multiple Species): Mouse - % Remaining after 30 min w/NADPH (%)

O=C(Nc1nc([C@H]2CCCN2c2ccccc2)cs1)c1cccn1CC1COC1    22.3

1. O=C(Nc1nc([C@H]2CCCN2c2ccccc2)cs1)c1cccn1CCCc1c[nH]nn1
2. CC(C#N)CCn1cccc1C(=O)Nc1nc([C@H]2CCCN2c2ccccc2)cs1 (stereo partly shown)
3. O=C(Nc1nc([C@H]2CCCN2c2ccc(OC3CCOCC3)cc2)cs1)c1cccn1Cc1ccncc1
Task: // ascending sort on recorded Liver Microsome Stability (Multiple Species): Mouse - % Remaining after 30 min w/NADPH Reply: labels, ordered per the request.
Output: 1, 2, 3

----------
Assay: Liver Microsome Stability Assay (human)
Conditions: human liver microsomes, with NADPH, 1.0 uM compound
property-label: Liver Microsome Stability (Multiple Species): Human - % Remaining after 30 min w/NADPH (%)

Field: example entries. Status: answers known.
NC(=O)N1CCC(Oc2ccc(N3CCC[C@@H]3c3csc(NC(=O)c4cccn4Cc4ccnc(F)c4)n3)cn2)CC1 [Compound A159]    9.01
CN(C)C(=O)CCCn1cccc1C(=O)Nc1nc([C@H]2CCCN2c2ccccc2)cs1 [Compound C61]    0.27
CN(C)c1ccc(N2CCC[C@@H]2c2csc(NC(=O)c3cccn3Cc3ccncc3)n2)cc1 [Compound A16]    0.34
CC(=O)N1CCCC(c2ccc(N3CCC[C@@H]3c3csc(NC(=O)c4cccn4Cc4ccncc4)n3)cc2)C1 (stereo partly shown) [Compound A63]    2.22

A. CC(=O)Nc1ccc(N2CCC[C@@H]2c2csc(NC(=O)c3cccn3Cc3ccnc(F)c3)n2)cc1F [Compound A93]
B. O=C(Nc1nc(/C=C/[C@H]2CCCCN2)cs1)c1cccn1Cc1ccncc1 [Compound E16]
C. O=C(Nc1nc([C@H]2CCCN2c2ccccc2)cs1)c1cccn1Cc1ccnnc1 [Compound C102]
Task: Let's sort these by Liver Microsome Stability (Multiple Species): Human - % Remaining after 30 min w/NADPH, smallest first. Go ahead? Response field: labels, in requested order.
Output: C, B, A

----------
Tested on: IL-2-FL/Gaussia Luciferase
Assay: Dox Induced IL2-FL-Gluc Assay
Format: cell-based
Conditions: ratio of IL2FLGluc IC50 to PD1ssGluc IC50
24 hr Dox Inducible IL2FLGluc 293FRT/TO: IL2/PD1 by entry:
Just the number.

Task: // returns reported 24 hr Dox Inducible IL2FLGluc 293FRT/TO: IL2/PD1 for input CC(=O)NCc1ccc(N2CCC[C@@H]2c2csc(NC(=O)c3cccn3Cc3ccnc(F)c3)n2)cc1 [Compound A64]
Output: 2.5

Task: // query 24 hr Dox Inducible IL2FLGluc 293FRT/TO: IL2/PD1 value for entry O=C(Nc1nc(/C=C/c2cn(-c3ccccc3)cn2)cs1)c1cccn1Cc1ccnc(F)c1 [Compound B104]
Output: 210

Task: Endpoint output: 24 hr Dox Inducible IL2FLGluc 293FRT/TO: IL2/PD1 of CC(=O)NCCOc1ccc(N2CCC[C@@H]2c2csc(NC(=O)c3cccn3Cc3ccnc(F)c3)n2)cc1 [Compound A121] . Value?
Output: 1.9

Task: Can you share its 24 hr Dox Inducible IL2FLGluc 293FRT/TO: IL2/PD1? I mean this compound: CS(=O)(=O)Nc1ccc(N2CCC[C@@H]2c2csc(NC(=O)c3cccn3Cc3ccnc(F)c3)n2)cc1 [Compound A118]
Output: 1.2

Task: Entry O=C(Nc1nc([C@H]2CCCN2c2ccc(C3(O)CCC3)cc2)cs1)c1cccn1Cc1ccnc(F)c1 [Compound A114] has what 24 hr Dox Inducible IL2FLGluc 293FRT/TO: IL2/PD1?
Output: 1.5

Task: Requested read-out: 24 hr Dox Inducible IL2FLGluc 293FRT/TO: IL2/PD1. Entry: Cc1cnn(C(C)C)c1/C=C/c1csc(NC(=O)c2cccn2Cc2ccnc(F)c2)n1 [Compound B84]
Output: 2.4

Task: What does the record list as 24 hr Dox Inducible IL2FLGluc 293FRT/TO: IL2/PD1 for COCCOc1ccc(N2CCC[C@@H]2c2csc(NC(=O)c3cccn3Cc3ccnc(F)c3)n2)cc1 [Compound A127] ?
Output: 1.8

Task: Look up 24 hr Dox Inducible IL2FLGluc 293FRT/TO: IL2/PD1: CC(C)n1ccc(/C=C/c2csc(NC(=O)c3cccn3Cc3ccncc3)n2)n1 [Compound B75]
Output: 38
